Listing of recorded pKd by entry.
- measured.target: T1, mouse IL-25 expressed with a C-terminal myc-myc-hexahistidine tag (mouse)
- T1 construct: also called Mouse IL-25-MMH; mIL-25-MMH
- T1 chain: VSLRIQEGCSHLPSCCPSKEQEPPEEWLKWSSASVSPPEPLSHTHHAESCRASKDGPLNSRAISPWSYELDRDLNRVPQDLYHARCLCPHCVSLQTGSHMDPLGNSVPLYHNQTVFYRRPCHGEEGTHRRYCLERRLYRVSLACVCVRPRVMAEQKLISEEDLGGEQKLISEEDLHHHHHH
- experiment: SPR Biacore, antibody captured, 25C
pKd: −log10 of the molar value.

binder	pKd
H4H10863P (antibody, human IgG4, V domains shown, H4H prefix = human IgG4 Fc) VH: QVQLVQSGAEVKKPGASVKVSCKASGYTFSSYGISWVRQAPGQGLEWMGWISAYNDNTQYAQKFQGRVTMTTDTSTSTAYMELRSLRSDDTAVYYCARVPLQWFGESFDHWGQGTLVTVSS VL: DIQMTQSPSSLSASVGDRVTITCRASQDINNYLNWFQQKPGKAPKLLIFSTSSLQSGVPSRFSGSGSGTDFTLTISSLQSEDFATYYCQQTFITPLTFGGGTKVEIK	8.57
H4H10905P (antibody, human IgG4, V domains shown, H4H prefix = human IgG4 Fc) VH: QVQLVQSGAEVKKPGTSVKVSCKASGYTFTNYGISWVRQAPGQGLEWLGWISAYNDNTDYAQKLQARVTMTTDTFTSTAYMDLRSLRSDDTAVYYCARVPITGTTSSFDFWGQGTLVTVSS VL: DIQMTQSPSSLSASVGDRVTISCRASQTIYSYLNWFQQKPGKAPKLLIYDASSLQSGVPSRFSGSGSGTHFTLTISSLQPEDFATYFCQQTYSTPLTFGGGTKVEIK	8.93
H4H10897P (antibody, human IgG4, V domains shown, H4H prefix = human IgG4 Fc) VH: QVQLQESGPGLVKPSETLSLTCTVSGGSISDYYWSWIRQPPGKGLEWIGHIYYSGSTNHNPSLKSRVAISVDTSKNQFSLRLYSVTAADTAVYYCARDGYSSSSGFYYFGMDVWGQGTTVTVSS VL: DIQLTQSPSFLSASVGDRVTITCWASQDINSYLAWYQQKPGKAPKLLIFAASTLQGGVPSRFSGSGSGTEFTLTISSLQPEDFATYYCQHLSSFPPTFGQGTRLEIK	8.15
H4H10876P (antibody, human IgG4, V domains shown, H4H prefix = human IgG4 Fc) VH: QVQLVQSGAEVKKPGASVKVSCKASEYTFSNYGISWVRQAPGQGLEWLGWIGAYSGFTKYAQKVQDRITMTTDASTTTAYMELRNLRSDDTAVYYCARVGTGTDSYFDFWGQGTLVTVSS VL: DIQMTQSPSSLSASVGDRVTITCRASQNINSHLNWYQQKPGKAPKLLIYTASSLQSGVPLRFSGSGSGTDFTLTISSLQPEDFGIYICQQTYITPLTFGGGTKVEIK	9.24
H4H10871P (antibody, human IgG4, V domains shown, H4H prefix = human IgG4 Fc) VH: QVQLVQSGAEVMKPGASVKVSCKSSDFAFTTYGISWVRQAPGQGLEWMGWISAYNGNTNYEQRFQGRITMTTDTSTTTVYMELRSLRSDDTAVYYCARDPDYCSSNTCSDAFDLWGQGTMVTVSS VL: DIQMTQSPSSLSASVRDRVTITCRASQGITNYLAWYQQKPGKVPKVLIYAASTLQSGVPSRFSGSGSGTEFTLAISSLQPEDVATYFCQQYGSAPWTFGQGTKVEIK	9.04
H4H10907P (antibody, human IgG4, V domains shown, H4H prefix = human IgG4 Fc) VH: EVQLVESGGGLVQPGGSLRLSCAASGFTFSNYDIHWVRQVPGKGLEWISTIGSAGDTFYPGSVKGRFTISRENAKNSLYLQMNSLRAGDSAVYYCARGDNWNYVSWFFDLWGRGTLVTVSS VL: DIQLTQSPSFLSTSVGDRVTITCWASQDISSFLAWYQQKPGKAPKLLIYAASVLQSGVPSRFSGSGSGTEFTLTISSLQPEDFATYYCQQVNSYPITFGQGTRLEIK	7.23
